Biological target: CDK12 (Homo sapiens, UniProt Q9NYV4)
Sequence (Q9NYV4 whole entry): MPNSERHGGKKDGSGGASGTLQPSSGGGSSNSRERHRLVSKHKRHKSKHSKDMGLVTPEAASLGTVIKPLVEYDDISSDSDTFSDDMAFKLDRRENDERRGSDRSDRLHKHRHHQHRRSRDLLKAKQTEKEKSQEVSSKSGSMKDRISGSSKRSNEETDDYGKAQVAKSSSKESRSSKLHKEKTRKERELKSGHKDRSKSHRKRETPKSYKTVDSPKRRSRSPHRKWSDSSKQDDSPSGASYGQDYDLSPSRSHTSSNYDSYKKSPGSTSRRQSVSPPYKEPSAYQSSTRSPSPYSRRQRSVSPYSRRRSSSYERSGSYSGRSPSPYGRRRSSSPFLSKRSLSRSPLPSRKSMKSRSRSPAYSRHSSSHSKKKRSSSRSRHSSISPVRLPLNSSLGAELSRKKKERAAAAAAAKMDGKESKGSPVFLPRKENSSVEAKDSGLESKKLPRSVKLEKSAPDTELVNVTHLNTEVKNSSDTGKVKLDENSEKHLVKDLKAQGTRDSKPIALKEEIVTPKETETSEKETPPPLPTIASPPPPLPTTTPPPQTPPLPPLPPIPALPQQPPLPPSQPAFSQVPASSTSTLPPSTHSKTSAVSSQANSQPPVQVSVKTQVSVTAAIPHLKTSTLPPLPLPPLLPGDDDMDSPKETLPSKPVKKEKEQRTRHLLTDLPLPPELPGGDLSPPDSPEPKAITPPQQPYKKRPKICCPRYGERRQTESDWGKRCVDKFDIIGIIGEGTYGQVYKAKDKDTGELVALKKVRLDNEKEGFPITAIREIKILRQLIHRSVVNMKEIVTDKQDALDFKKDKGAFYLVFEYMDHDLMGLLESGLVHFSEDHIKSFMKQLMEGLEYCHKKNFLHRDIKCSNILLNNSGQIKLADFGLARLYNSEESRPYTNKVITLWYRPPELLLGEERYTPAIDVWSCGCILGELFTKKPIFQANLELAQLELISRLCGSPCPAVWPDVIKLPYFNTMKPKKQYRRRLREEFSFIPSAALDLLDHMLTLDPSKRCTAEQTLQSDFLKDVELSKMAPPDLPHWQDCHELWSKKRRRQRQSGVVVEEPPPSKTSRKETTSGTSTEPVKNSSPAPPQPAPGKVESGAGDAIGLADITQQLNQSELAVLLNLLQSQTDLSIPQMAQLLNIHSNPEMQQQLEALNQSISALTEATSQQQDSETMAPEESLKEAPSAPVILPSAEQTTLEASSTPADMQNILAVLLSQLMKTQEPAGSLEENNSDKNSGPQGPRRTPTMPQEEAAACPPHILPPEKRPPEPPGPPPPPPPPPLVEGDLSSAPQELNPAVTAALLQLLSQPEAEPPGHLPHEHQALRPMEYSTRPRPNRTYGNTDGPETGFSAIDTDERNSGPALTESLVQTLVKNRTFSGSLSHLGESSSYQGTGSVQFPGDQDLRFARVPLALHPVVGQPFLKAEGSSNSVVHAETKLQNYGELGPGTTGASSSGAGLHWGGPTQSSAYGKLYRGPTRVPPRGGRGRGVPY
Sequence (O75909 whole entry partner): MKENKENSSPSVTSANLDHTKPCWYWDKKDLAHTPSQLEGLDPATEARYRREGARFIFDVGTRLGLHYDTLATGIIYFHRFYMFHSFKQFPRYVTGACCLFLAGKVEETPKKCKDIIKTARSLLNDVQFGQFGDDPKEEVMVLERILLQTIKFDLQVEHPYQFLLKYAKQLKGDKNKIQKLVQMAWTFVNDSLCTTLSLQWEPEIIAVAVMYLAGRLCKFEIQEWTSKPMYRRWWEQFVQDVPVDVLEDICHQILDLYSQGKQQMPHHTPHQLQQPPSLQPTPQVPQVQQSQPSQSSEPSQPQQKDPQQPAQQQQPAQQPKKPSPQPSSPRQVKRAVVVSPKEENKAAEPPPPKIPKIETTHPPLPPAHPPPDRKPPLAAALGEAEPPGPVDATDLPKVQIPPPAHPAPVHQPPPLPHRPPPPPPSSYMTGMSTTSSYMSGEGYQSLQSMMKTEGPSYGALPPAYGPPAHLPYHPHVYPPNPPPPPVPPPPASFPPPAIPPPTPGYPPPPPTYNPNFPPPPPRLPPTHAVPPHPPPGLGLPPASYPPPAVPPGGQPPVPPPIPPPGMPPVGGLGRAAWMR
Experiment: Biochemical assay for CDK12 (LANCE TR-FRET, IC50 determination)
Conditions: CDK12, IC50 class; read-out: IC50 μM (in range)
Procedure: Biochemical Assay for CDK12 (IC50 Determination): The inhibitory activity of the test compounds was assessed by the LANCE TR-FRET assay, which detects the ATP-dependent phosphorylation of an ULight-4E-BP1 (Thr37/Thr46) substrate peptide (100 nM) by CDK12 (30 nM). […] Time-resolved fluorescence (excitation, 320 nm; emission donor, 615 nm; emission acceptor, 665 nm) was monitored by using 2030 multilabel reader Victor5 (PerkinElmer). […]
measured-endpoint: IC50

Ask: Item under review: COc1cc(NC(=O)Cc2ccc(-c3cc(N4CCC(C)(O)CC4)cc(C#N)n3)nc2)ncc1Cl . Reported IC50?
Reply: 0.01 to 0.1 µM

Ask: Item under review: N#CN1CC=C(c2ccc(CC(=O)Nc3cc(OC4CCOC4)c(Cl)cn3)cn2)CC1 (stereo not shown) . Reported IC50?
Reply: < 0.01 µM

Ask: Item under review: CNC(=O)C(C)Oc1cc(NC(=O)Cc2ccc(C3CCCN(C#N)C3)nc2)ncc1Cl (single isomer, unassigned) [Compound 87] . Reported IC50?
Reply: > 0.1 µM

Ask: Item under review: COc1cc(NC(=O)Cc2ccc(-c3cc(N(C)CCN(C)C)cc(C#N)n3)nc2)ncc1Cl . Reported IC50?
Reply: 0.01 to 0.1 µM

Ask: Item under review: N#CN1CC=C(c2ccc(CC(=O)Nc3ccc(Cl)cn3)cn2)C1 . Reported IC50?
Reply: < 0.01 µM

Ask: Item under review: COc1cc(NC(=O)Cc2ccc(-c3cncc(C#N)n3)nc2)ncc1Cl . Reported IC50?
Reply: < 0.01 µM

Ask: Item under review: CC1CC(Oc2cc(NC(=O)Cc3ccc(C4=CCCN(C#N)C4)nc3)ncc2Cl)CCN1C (single isomer, unassigned) [Compound 64] . Reported IC50?
Reply: < 0.01 µM

* * *

Please provide measured inhibition at 10 µM for the entries that follow.
molecular target: CDK12 (Homo sapiens, UniProt Q9NYV4); assay: Biochemical assay for CDK12 (LANCE TR-FRET, IC50 determination); details: compound at 10 μM; read-out: CDK12 % Inhibition @ 10 μM
Express your answer in %, writing the number without its unit.

Ask: Item under review: COc1cc(NC(=O)Cc2ccc(-c3cc(OC4CCCN(C)C4)cc(C#N)n3)nc2)ncc1Cl (centres unmarked) . Reported inhibition at 10 µM?
Reply: 88

Ask: Item under review: CN1CC[C@H](Oc2cc(NC(=O)Cc3ccc(C4=CCCN(C#N)C4)nc3)ncc2Cl)C1 . Reported inhibition at 10 µM?
Reply: 98

Ask: Item under review: COc1cc(NC(=O)Cc2ccc(-c3cc(C(C)(C)O)cc(C#N)n3)nc2)ncc1Cl . Reported inhibition at 10 µM?
Reply: 97

Ask: Item under review: CN1CCC[C@@H](Oc2cc(NC(=O)Cc3ccc(C4CCN(C#N)CC4)nc3)ncc2Cl)C1 . Reported inhibition at 10 µM?
Reply: 52

Ask: Item under review: COc1cc(NC(=O)Cc2ccc(C3CCCN(C#N)C3)nc2)ncc1Cl (single isomer, unassigned) [Compound 79] . Reported inhibition at 10 µM?
Reply: 79

Ask: Item under review: COc1cc(NC(=O)Cc2ccc(C3=CC4CN(C#N)CC4C3)nc2)ncc1Cl (centres unmarked) . Reported inhibition at 10 µM?
Reply: 96

Ask: Item under review: CNC(=O)C(C)Oc1cc(NC(=O)Cc2ccc(C3CCCN(C#N)C3)nc2)ncc1Cl (centres unmarked) [Compound 85] . Reported inhibition at 10 µM?
Reply: 92

Ask: Item under review: CNC(=O)C(C)Oc1cc(NC(=O)Cc2ccc(C3CCN(C#N)CC3)nc2)ncc1Cl (centres unmarked) [Compound 82] . Reported inhibition at 10 µM?
Reply: 87

* * *

target: CDK12 (Homo sapiens, UniProt Q9NYV4); experiment: Biochemical assay for CDK12 (LANCE TR-FRET, IC50 determination); conditions: CDK12, IC50 class; read-out: IC50 μM (in range)
Please provide measured IC50 for the entries that follow.

Ask: Item under review: COc1cc(NC(=O)Cc2cnc(C3=CCN(C#N)CC3)c(OC)c2)ncc1Cl . Reported IC50?
Reply: < 0.01 µM

Ask: Item under review: COc1cc(NC(=O)Cc2ccc(C3CC4CCC(C3)N4C#N)nc2)ncc1Cl (stereo not shown) . Reported IC50?
Reply: < 0.01 µM

Ask: Item under review: COc1cc(NC(=O)Cc2ccc(-c3cc(OCCN(C)C)cc(C#N)n3)nc2)ncc1Cl . Reported IC50?
Reply: 0.01 to 0.1 µM

Ask: Item under review: CN1CCC[C@H](Oc2cc(NC(=O)Cc3ccc(C4CCN(C#N)CC4)nc3)ncc2Cl)C1 . Reported IC50?
Reply: > 0.1 µM

Ask: Item under review: CNC(=O)C(C)Oc1cc(NC(=O)Cc2ccc(C3=CCN(C#N)CC3)nc2)ncc1Cl (single isomer, unassigned) [Compound 2] . Reported IC50?
Reply: < 0.01 µM

Ask: Item under review: COc1cc(NC(=O)Cc2ccc(-c3cc(O[C@H]4CCOC4)cc(C#N)n3)nc2)ncc1Cl [Compound 197] . Reported IC50?
Reply: 0.01 to 0.1 µM

Ask: Item under review: COc1cc(NC(=O)Cc2ccc(-c3cc(OC4CCN(C)CC4F)cc(C#N)n3)nc2)ncc1Cl (stereo not shown) . Reported IC50?
Reply: 0.01 to 0.1 µM

Ask: Item under review: CNC(=O)C(C)Oc1cc(NC(=O)Cc2ccc(C3=CCCN(C#N)C3)nc2)ncc1Cl (stereo not shown) [Compound 56] . Reported IC50?
Reply: < 0.01 µM

Ask: Item under review: CN1CCCC1COc1cc(NC(=O)Cc2ccc(C3=CCN(C#N)CC3)nc2)ncc1Cl (stereo not shown) . Reported IC50?
Reply: > 0.1 µM

Ask: Item under review: CN1CCC(Oc2cc(NC(=O)Cc3ccc(C4=CCCN(C#N)C4)nc3)ncc2Cl)CC1 . Reported IC50?
Reply: < 0.01 µM

Ask: Item under review: COc1cc(NC(=O)Cc2ccc(-c3cccc(C#N)c3)nc2)ncc1Cl . Reported IC50?
Reply: > 0.1 µM

Ask: Item under review: CNC(=O)C(C)Oc1cc(NC(=O)Cc2ccc(-c3ccnc(C#N)c3)nc2)ncc1Cl (stereo not shown) . Reported IC50?
Reply: 0.01 to 0.1 µM

Ask: Item under review: N#CN1CC=C(c2ccc(CC(=O)Nc3ccc(Cl)cn3)cn2)CC1 . Reported IC50?
Reply: 0.01 to 0.1 µM

Ask: Item under review: COc1cc(NC(=O)Cc2ccc(-c3cc(OC4COC4)cc(C#N)n3)nc2)ncc1Cl . Reported IC50?
Reply: 0.01 to 0.1 µM

Ask: Item under review: COC[C@@H](C)Oc1cc(NC(=O)Cc2ccc(C3=CCCN(C#N)C3)nc2)ncc1Cl . Reported IC50?
Reply: < 0.01 µM

Ask: Item under review: N#CN1CC=C(c2ccc(CC(=O)Nc3cc(C4(O)COC4)c(Cl)cn3)cn2)CC1 . Reported IC50?
Reply: < 0.01 µM

* * *

target: UniProt:Q9NYV4; assay: Biochemical assay for CDK12 (LANCE TR-FRET, IC50 determination); details: compound at 10 μM; read-out: CDK12 % Inhibition @ 10 μM
measured-endpoint: inhibition at 10 µM (%)
Express your answer in %, writing the number without its unit.

Ask: Notebook entry, UniProt:Q9NYV4 assay: inhibition at 10 µM of COc1cc(NC(=O)Cc2ccc(-c3cc(OC4CCN(C)C4)cc(C#N)n3)nc2)ncc1Cl (centres unmarked) [Compound 171] = ?
Reply: 83

Ask: Notebook entry, UniProt:Q9NYV4 assay: inhibition at 10 µM of COc1cc(NC(=O)Cc2ccc(-c3ccc(CN(C#N)C(C)C)nc3)nc2)ncc1Cl [Compound 132] = ?
Reply: 93

Ask: Notebook entry, UniProt:Q9NYV4 assay: inhibition at 10 µM of COc1cc(NC(=O)Cc2ccc(-c3cc(OC4CCN(C)CC4)cc(C#N)n3)nc2)ncc1Cl [Compound 176] = ?
Reply: 96

Ask: Notebook entry, UniProt:Q9NYV4 assay: inhibition at 10 µM of CN1C2CCC1CC(Oc1cc(NC(=O)Cc3ccc(C4=CCCN(C#N)C4)nc3)ncc1Cl)C2 (centres unmarked) [Compound 62] = ?
Reply: 96

Ask: Notebook entry, UniProt:Q9NYV4 assay: inhibition at 10 µM of COc1cc(NC(=O)Cc2ccc(C3=CCCN(C#N)C3)cc2F)ncc1Cl [Compound 113] = ?
Reply: 92

Ask: Notebook entry, UniProt:Q9NYV4 assay: inhibition at 10 µM of CN1CCC[C@H](Oc2cc(NC(=O)Cc3ccc(C4=CCCN(C#N)C4)nc3)ncc2Cl)C1 [Compound 47] = ?
Reply: 85

Ask: Notebook entry, UniProt:Q9NYV4 assay: inhibition at 10 µM of COc1cc(NC(=O)Cc2ccc(C3CC4CN(C#N)CC4C3)nc2)ncc1Cl (centres unmarked) [Compound 76] = ?
Reply: 90

Ask: Notebook entry, UniProt:Q9NYV4 assay: inhibition at 10 µM of N#CN1CCC(c2ccc(CC(=O)Nc3ccc(Cl)cn3)cn2)C1 (centres unmarked) [Compound 16] = ?
Reply: 89
